For each record, write down the corresponding self-cleavage.
B1: Twister Ribozyme (parent)
chain: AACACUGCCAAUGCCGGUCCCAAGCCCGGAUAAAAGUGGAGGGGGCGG

variants of: B1; assay: self-cleavage, relative activity (ratio to wild type); higher = more cleavage; co-transcriptional
Numbers only.

>  <sequence.record>
AACACUGCCAAUGCCGGUCUCAAGCCCGGAUAAAACUGGAGGGGGCGG [C20U G36C]

>  <self-cleavage>
0.135

$$$$
>  <sequence.record>
AACGCUGCCAAUCCCGGUCCCAAGCCCGGAUAAAAGUGGAGGGGGCGG [A4G G13C]

>  <self-cleavage>
0.244

$$$$

Batch request: self-cleavage per item, same order as input.
1. AACACUGCGAAUGCCGGUCCCAAGCCCGGAUAAAAGUGGAUGGGGCGG [C9G G41U]
2. AACACUGCCAAUGCCGGUCCCAGGCCCGGAUAAAAGUGGACGGGGCGG [A23G G41C]

0.122
0.138

Batch request: self-cleavage per item, same order as input.
1. AACACUGCCUAUGUCGGUCCCAAGCCCGGAUAAAAGUGGAGGGGGCGG [A10U C14U]
2. AACACUGCCAAUGCCGGUCCCAAGCCCGGAUAAAAGUGGGGGGGGCGU [A40G G48U]
3. AACUCUGCCAAUGCCGAUCCCAAGCCCGGAUAAAAGUGGAGGGGGCGG [A4U G17A]
4. AACACUGCCAAUGCCGGUCCUAAGCCCGGAUAAAAGUAGAGGGGGCGG [C21U G38A]
5. AACACUGCCAAUGCCGGUGCCAAGCCCGGAUAAAAGUUGAGGGGGCGG [C19G G38U]
6. AACACUGCCAAUGCCGGUCCCAAGCUCGGAUAAAAGUUGAGGGGGCGG [C26U G38U]

0.884
0.131
0.0705
0.0657
0.0929
0.201

Batch request: self-cleavage per item, same order as input.
1. AACACUGCCAAUGCCGGUCCCAAGCCCGGAUAACAGUGGAGGCGGCGG [A34C G43C]
2. AACACUGCCAAUGCCGGUCCCAAGCCCGGCUAAAAGUGGAGGGGACGG [A30C G45A]

[0.103, 0.733]

Batch request: self-cleavage per item, same order as input.
1. AACAAUGCCAAUGCCGGUCCCAAGCCCGGAUACAAGUGGAGGGGGCGG [C5A A33C]
2. AACACUGCCAAUGCCGGUCCCAAGCCCGGAUAAGAGUGGAGGGGGUGG [A34G C46U]
3. AACACAGCCAAUGCCGGUCCCAAGCCCGGAUAAAAGUGGAGGGGGCGG [U6A]
4. AACUCUGCCAAUGCCGGUCCCAAGCCCGGAUAAAAGUGGAGGGGGCGU [A4U G48U]
5. AACACUGCCAAUGCCGGACCCAAGCCCGGAUAAAAGUGGAGGGGACGG [U18A G45A]
6. AACACUGCCAAUGCCGGACCCAAGCCUGGAUAAAAGUGGAGGGGGCGG [U18A C27U]
7. AACACUGCCAAUGCCGGUCCCAAGCCCGGAUAAGAGUGGAAGGGGCGG [A34G G41A]
8. AACAAUGCCAAUGCCGGUCCCAAGCCCGGAAAAAAGUGGAGGGGGCGG [C5A U31A]

[0.439, 0.834, 1.03, 0.147, 0.32, 0.385, 0.141, 0.438]

Batch request: self-cleavage per item, same order as input.
1. AGCUCUGCCAAUGCCGGUCCCAAGCCCGGAUAAAAGUGGAGGGGGCGG [A2G A4U]
2. AACACUGCCAAUGGCGGUCCCAAGCCCGGAUAAAAGUGGAGUGGGCGG [C14G G42U]
3. AACACUGCAAAUGCCGGUCCCAAGCCCGGAUAAAAGUGGAGGGCGCGG [C9A G44C]
4. AACACUGCCAAUGCCGGUCCCAAGCCCGGGUAAAACUGGAGGGGGCGG [A30G G36C]
5. AACACUGCCAAUGACGGUCCCAAGCCUGGAUAAAAGUGGAGGGGGCGG [C14A C27U]
6. AACACUGCCAACGCCGGUCCCAAGCCCGGAUUAAAGUGGAGGGGGCGG [U12C A32U]
7. AACACUGCCAAUGCCGGUCCCAAGCCCGGACAAAAGUGGAUGGGGCGG [U31C G41U]

0.117
0.0931
0.425
0.422
0.75
0.835
0.764

Batch request: self-cleavage per item, same order as input.
1. AACACUGCCAAAGCCGGUCCCAAGCCCGGAUAAAAGUGGAGGGGGCAG [U12A G47A]
2. AACACGGCCAAUGCCGGUCCCAAGCCCGGAUAAAAGUGGAGGGGGCGC [U6G G48C]
3. AUCACUGCCAAUGCCGGUCCCAAGCCCGGAUAAAAGUGGCGGGGGCGG [A2U A40C]
4. AACACUUCCAAUGCCGGUCCCAAGCCCGGAUAAGAGUGGAGGGGGCGG [G7U A34G]
5. AACCCUGCUAAUGCCGGUCCCAAGCCCGGAUAAAAGUGGAGGGGGCGG [A4C C9U]
6. AACACUGCCAAUGCCGGUCCCAAGCCCGGAUAAAAGUGGAGGGGGCGC [G48C]

1: 1.13; 2: 0.358; 3: 0.155; 4: 0.0851; 5: 0.0772; 6: 1.15

Batch request: self-cleavage per item, same order as input.
1. AACACUGCCAAUGCCGGUCCCAAGCCCGGAUAAAAGUGGAGGUGUCGG [G43U G45U]
2. AACACUGUCAAUGCCGGUCCCAAGCCCGGCUAAAAGUGGAGGGGGCGG [C8U A30C]
3. AGCACUGCCAAUGCCGGUCCCAAGCCCGGAUAAAAGUGGCGGGGGCGG [A2G A40C]
4. AACACUGCCAAUGCCGGUCCAAAGUCCGGAUAAAAGUGGAGGGGGCGG [C21A C25U]
5. AACCCUGCCAAUGCCGGUCCCAAGCCCGGAUAAAAGUAGAGGGGGCGG [A4C G38A]
6. AACCCUGCCAAUGCCGGUCCCACGCCCGGAUAAAAGUGGAGGGGGCGG [A4C A23C]
7. AACACUGCCAAUGCCCGUCCCAAGCCCGGAUAAAAGUGGAGCGGGCGG [G16C G42C]

0.358
0.15
0.138
0.0609
0.142
0.0177
0.121

Batch request: self-cleavage per item, same order as input.
1. AACACUACCAAUGCCGGUACCAAGCCCGGAUAAAAGUGGAGGGGGCGG [G7A C19A]
2. AACACCGCCAAUGCCGGUCCCAAGCCCGGAUAAAAAUGGAGGGGGCGG [U6C G36A]
3. AACACUGUCAAUGCCGGUCCCAAGCCCGGAUUAAAGUGGAGGGGGCGG [C8U A32U]
4. AACACUGCCAAAGCCGGUCCCAAGCCCGGAUAAAAAUGGAGGGGGCGG [U12A G36A]
5. AACACUGCCAAUGCCGCUCCCAAGCCCUGAUAAAAGUGGAGGGGGCGG [G17C G28U]
6. AACACUGCCAAUGCCGGUCCCAAGCCUGGAUAAAGGUGGAGGGGGCGG [C27U A35G]

[0.0667, 0.136, 0.515, 0.924, 0.0606, 0.271]
